target: IKZF2 (Homo sapiens, UniProt Q96SW2+Q9UKS7); construct: CRISPR/Cas9—mediated insertion of the HiBiT peptide tag (Promega™) to the N-terminus of the IKZF2 gene locus; endogenous in cells; host or cells: MOLT4 cells, with CRISPR/Cas9 knock-in of HiBiT at the endogenous IKZF2 locus; test: HiBit-IKZF2 assay (HiBiT-Helios degradation in MOLT4 cells); assay type: cell-based; conditions: MOLT-4, extent of degradation from highest to lowest concentration, 10 μM to 0.00026 μM, read-out: Dmax
Sequence (Q9UKS7 whole entry): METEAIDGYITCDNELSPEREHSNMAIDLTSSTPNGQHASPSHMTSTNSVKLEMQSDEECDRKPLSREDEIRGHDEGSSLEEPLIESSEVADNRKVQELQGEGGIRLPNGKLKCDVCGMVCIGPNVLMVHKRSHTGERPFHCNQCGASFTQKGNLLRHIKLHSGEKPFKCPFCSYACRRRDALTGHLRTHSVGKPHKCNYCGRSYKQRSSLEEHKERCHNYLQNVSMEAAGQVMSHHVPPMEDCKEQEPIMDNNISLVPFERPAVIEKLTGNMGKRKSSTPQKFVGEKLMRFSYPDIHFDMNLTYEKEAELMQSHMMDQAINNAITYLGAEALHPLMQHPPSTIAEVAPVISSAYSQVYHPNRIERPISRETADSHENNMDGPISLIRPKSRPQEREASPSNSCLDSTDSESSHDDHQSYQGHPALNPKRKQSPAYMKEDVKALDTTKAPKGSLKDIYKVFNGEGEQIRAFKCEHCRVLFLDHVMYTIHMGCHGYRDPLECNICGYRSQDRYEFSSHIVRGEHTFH
Sequence (Q96SW2 whole entry): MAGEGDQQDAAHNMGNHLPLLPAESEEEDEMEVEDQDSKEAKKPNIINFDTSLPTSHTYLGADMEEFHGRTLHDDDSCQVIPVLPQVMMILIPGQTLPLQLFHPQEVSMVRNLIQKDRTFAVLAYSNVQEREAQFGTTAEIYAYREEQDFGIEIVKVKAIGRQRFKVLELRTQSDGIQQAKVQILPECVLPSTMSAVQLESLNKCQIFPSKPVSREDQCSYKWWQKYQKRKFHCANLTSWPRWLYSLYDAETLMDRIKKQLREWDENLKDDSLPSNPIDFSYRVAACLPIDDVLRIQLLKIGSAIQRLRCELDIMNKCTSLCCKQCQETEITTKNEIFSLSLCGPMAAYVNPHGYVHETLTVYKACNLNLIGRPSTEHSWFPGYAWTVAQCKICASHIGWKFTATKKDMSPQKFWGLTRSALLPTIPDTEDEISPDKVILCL
Sequence (Q16531 whole entry partner): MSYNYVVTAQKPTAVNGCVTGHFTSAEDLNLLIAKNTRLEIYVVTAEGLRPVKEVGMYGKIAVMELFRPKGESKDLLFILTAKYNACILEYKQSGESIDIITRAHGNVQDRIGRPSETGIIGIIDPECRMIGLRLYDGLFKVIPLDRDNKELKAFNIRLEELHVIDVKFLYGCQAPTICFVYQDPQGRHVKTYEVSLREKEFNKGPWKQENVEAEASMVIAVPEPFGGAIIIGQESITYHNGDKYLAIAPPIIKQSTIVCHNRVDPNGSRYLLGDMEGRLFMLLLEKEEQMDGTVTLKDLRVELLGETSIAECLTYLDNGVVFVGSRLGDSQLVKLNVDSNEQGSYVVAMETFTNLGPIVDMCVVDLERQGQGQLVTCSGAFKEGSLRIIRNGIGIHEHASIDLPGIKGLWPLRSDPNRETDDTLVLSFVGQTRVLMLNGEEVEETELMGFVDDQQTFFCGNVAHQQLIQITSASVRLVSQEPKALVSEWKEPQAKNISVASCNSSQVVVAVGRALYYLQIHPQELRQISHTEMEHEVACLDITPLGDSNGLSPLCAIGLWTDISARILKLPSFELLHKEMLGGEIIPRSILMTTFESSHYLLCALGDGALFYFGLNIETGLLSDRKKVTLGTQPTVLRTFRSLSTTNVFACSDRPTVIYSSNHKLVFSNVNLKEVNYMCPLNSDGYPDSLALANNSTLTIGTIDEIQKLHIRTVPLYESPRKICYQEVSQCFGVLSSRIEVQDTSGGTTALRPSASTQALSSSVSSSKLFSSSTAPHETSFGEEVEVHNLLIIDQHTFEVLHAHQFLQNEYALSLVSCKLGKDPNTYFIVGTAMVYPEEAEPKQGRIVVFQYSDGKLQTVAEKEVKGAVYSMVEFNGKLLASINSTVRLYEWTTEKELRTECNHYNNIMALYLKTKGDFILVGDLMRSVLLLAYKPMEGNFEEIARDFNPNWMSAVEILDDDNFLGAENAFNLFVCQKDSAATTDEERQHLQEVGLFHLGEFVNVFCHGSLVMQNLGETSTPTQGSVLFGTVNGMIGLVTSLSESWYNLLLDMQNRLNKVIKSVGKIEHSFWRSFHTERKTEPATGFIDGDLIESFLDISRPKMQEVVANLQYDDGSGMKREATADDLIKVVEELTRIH
value.kind: Dmax

Take a look at these entries with their results.
>>> reported_measurement("O=C1CCC(N2Cc3cc(C4CCN(Cc5ccc6c(n5)C(=O)N(c5ccccc5)C6)CC4)ccc3C2=O)C(=O)N1 (stereo not shown) [Compound 172]")
"30 to 50%"
>>> reported_measurement("O=C1CCC(N2Cc3cc(C4CCN(Cc5ccc6c(c5)C(=O)N(c5cccc(F)c5)C6)CC4)ccc3C2=O)C(=O)N1 (stereo not shown) [Compound 175]")
"50 to 70%"
>>> reported_measurement("O=C1CCC(N2Cc3cc(C4CCN(Cc5cccc(C(=O)Nc6ccccn6)c5)CC4)ccc3C2=O)C(=O)N1 (stereo not shown) [Compound 156]")
"50 to 70%"
>>> reported_measurement("O=C1CCC(N2Cc3cc(C4(O)CCN(Cc5ccccc5C(F)(F)F)CC4)ccc3C2=O)C(=O)N1 (stereo not shown) [Compound 249]")
"> 70%"
>>> reported_measurement("O=C1CCC(N2Cc3cc(C4CCN(Cc5ccnc(Nc6ccccc6)n5)CC4)ccc3C2=O)C(=O)N1 (stereo not shown) [Compound 122]")
"30 to 50%"

Respond only with Dmax recorded for O=C1CCC(N2Cc3cc(C4(O)CCN(Cc5ccc6ccc(-c7ccccc7)nc6c5)CC4)ccc3C2=O)C(=O)N1 (stereo not shown) [Compound 236]
> 70%

Respond only with Dmax recorded for O=C1CCC(N2Cc3cc(C4CCN(Cc5cccc(Nc6ccccn6)n5)CC4)ccc3C2=O)C(=O)N1 (stereo not shown) [Compound 101]
30 to 50%

====

Target: IKZF2 (Homo sapiens, UniProt Q96SW2+Q9UKS7)
Construct: CRISPR/Cas9—mediated insertion of the HiBiT peptide tag (Promega™) to the N-terminus of the IKZF2 gene locus; endogenous in cells; host or cells: MOLT4 cells, with CRISPR/Cas9 knock-in of HiBiT at the endogenous IKZF2 locus
Experiment: HiBit-IKZF2 assay (HiBiT-Helios degradation in MOLT4 cells)
Type: cell-based
Settings: MOLT-4, extent of degradation from highest to lowest concentration, 10 μM to 0.00026 μM, read-out: Dmax
Description: The HiBiT protein tagging system was applied to MOLT4 cells via a CRISPR/Cas9—mediated insertion of the HiBiT peptide tag (Promega™) to the N-terminus of the IKZF2 gene locus (Neon™ Transfection System). […] At the indicated timepoints, the Nano-Glo® HiBiT Lytic Detection System (Promega™) was utilized for detecting bioluminescence of the HiBiT tag in treated cells: abundance of the tag is proportionate to the level of luminescence. […]
Each entry below carries its reported Dmax.

Take a look at these entries with their results.
>>> reported_measurement("O=C1CCC(N2Cc3cc(C4(O)CCN(Cc5cccc6c5CCN(c5ccccn5)C6=O)CC4)ccc3C2=O)C(=O)N1 (stereo not shown)")
"50 to 70%"
>>> reported_measurement("O=C1CCC(N2Cc3cc(C4CCN(Cc5ccc6c(c5)C(=O)N(c5ncccn5)CC6)CC4)ccc3C2=O)C(=O)N1 (stereo not shown)")
"50 to 70%"
>>> reported_measurement("Cc1cccc(N2Cc3ccc(CN4CCC(c5ccc6c(c5)CN(C5CCC(=O)NC5=O)C6=O)CC4)cc3C2=O)c1 (stereo not shown)")
"> 70%"

Now consider the entry below.
Answer briefly: Dmax recorded on IKZF2 (Homo sapiens, UniProt Q96SW2+Q9UKS7) for O=C1CCC(N2Cc3cc(C4CCN(Cc5ccc(S(=O)(=O)N6CCc7ccccc76)cc5)CC4)ccc3C2=O)C(=O)N1 (stereo not shown)
50 to 70%
